Cited source: ChEMBL document CHEMBL3045459

Test system: Escherichia coli
Experiment: Antibacterial activity against Escherichia coli assessed as growth inhibition after 24 hr by agar well diffusion method
Assay type: functional
Reported diameter of the inhibition zone (DIZ) values follow for various compounds
Measured Endpoint: diameter of the inhibition zone (DIZ) (mm)

INSERT INTO measurements (compound, measured_endpoint, observed_value) VALUES
  ('COc1cc(-c2cc(-c3ccc(-n4ccnc4)cc3)nc(N)n2)ccc1OO', 'diameter of the inhibition zone (DIZ)', 15),
  ('Nc1nc(-c2ccc(I)cc2)cc(-c2ccc(-n3ccnc3)cc2)n1', 'diameter of the inhibition zone (DIZ)', 20),
  ('COc1ccc(-c2cc(-c3ccc(-n4ccnc4)cc3)nc(N)n2)cc1', 'diameter of the inhibition zone (DIZ)', 12),
  ('Nc1nc(-c2ccc(Br)cc2)cc(-c2ccc(-n3ccnc3)cc2)n1', 'diameter of the inhibition zone (DIZ)', 12),
  ('Nc1nc(-c2ccc(Cl)cc2)cc(-c2ccc(-n3ccnc3)cc2)n1', 'diameter of the inhibition zone (DIZ)', 18),
  ('Nc1nc(-c2ccc(F)cc2)cc(-c2ccc(-n3ccnc3)cc2)n1', 'diameter of the inhibition zone (DIZ)', 16),
  ('Nc1nc(-c2ccc(-n3ccnc3)cc2)cc(-c2cc(Cl)ccc2Cl)n1', 'diameter of the inhibition zone (DIZ)', 12),
  ('Nc1nc(-c2ccc(-n3ccnc3)cc2)cc(-c2ccc(Cl)cc2Cl)n1', 'diameter of the inhibition zone (DIZ)', 14),
  ('C[C@@H](O)[C@H]1C(=O)N2C(C(=O)O)=C(SCCNC=N)C[C@H]12 [IMIPENEM ANHYDROUS]', 'diameter of the inhibition zone (DIZ)', 35),
  ('COc1cccc(-c2cc(-c3ccc(-n4ccnc4)cc3)nc(N)n2)c1', 'diameter of the inhibition zone (DIZ)', 13),
  ('Nc1nc(-c2ccccc2)cc(-c2ccc(-n3ccnc3)cc2)n1', 'diameter of the inhibition zone (DIZ)', 11),
  ('Nc1nc(-c2ccc(-n3ccnc3)cc2)cc(-c2ccc(Cl)c(Cl)c2Cl)n1', 'diameter of the inhibition zone (DIZ)', 18);

###

Tested on: Salmonella typhi
Assay: Antibacterial activity against Salmonella enterica subsp. enterica serovar Typhi assessed as growth inhibition after 24 hr by agar well diffusion method
Format: functional
Active and inactive are the calls of the source. The rule behind the calls is not given here.
Measured Endpoint: growth inhibition (GI)

INSERT INTO assay_data (compound_structure, measured_endpoint, observed_value) VALUES
  ('COc1cccc(-c2cc(-c3ccc(-n4ccnc4)cc3)nc(N)n2)c1', 'growth inhibition (GI)', 'inactive'),
  ('COc1cc(-c2cc(-c3ccc(-n4ccnc4)cc3)nc(N)n2)ccc1OO', 'growth inhibition (GI)', 'inactive'),
  ('Nc1nc(-c2ccc(I)cc2)cc(-c2ccc(-n3ccnc3)cc2)n1', 'growth inhibition (GI)', 'inactive'),
  ('Nc1nc(-c2ccc(F)cc2)cc(-c2ccc(-n3ccnc3)cc2)n1', 'growth inhibition (GI)', 'inactive'),
  ('Nc1nc(-c2ccc(-n3ccnc3)cc2)cc(-c2cc(Cl)ccc2Cl)n1', 'growth inhibition (GI)', 'inactive'),
  ('Nc1nc(-c2ccccc2)cc(-c2ccc(-n3ccnc3)cc2)n1', 'growth inhibition (GI)', 'inactive'),
  ('Nc1nc(-c2ccc(-n3ccnc3)cc2)cc(-c2ccc(Cl)cc2Cl)n1', 'growth inhibition (GI)', 'inactive'),
  ('Nc1nc(-c2ccc(Br)cc2)cc(-c2ccc(-n3ccnc3)cc2)n1', 'growth inhibition (GI)', 'inactive'),
  ('COc1ccc(-c2cc(-c3ccc(-n4ccnc4)cc3)nc(N)n2)cc1', 'growth inhibition (GI)', 'inactive'),
  ('Nc1nc(-c2ccc(Cl)cc2)cc(-c2ccc(-n3ccnc3)cc2)n1', 'growth inhibition (GI)', 'inactive'),
  ('Nc1nc(-c2ccc(-n3ccnc3)cc2)cc(-c2ccc(Cl)c(Cl)c2Cl)n1', 'growth inhibition (GI)', 'inactive');

###

Tested on: Staphylococcus aureus
Experiment: Antibacterial activity against Staphylococcus aureus assessed as growth inhibition after 24 hr by agar well diffusion method
Type: functional
Measured Endpoint: diameter of the inhibition zone (DIZ)

INSERT INTO assay_data (compound, measurement_target, observed_value) VALUES
  ('COc1cccc(-c2cc(-c3ccc(-n4ccnc4)cc3)nc(N)n2)c1', 'Staphylococcus aureus', '14 mm'),
  ('C[C@@H](O)[C@H]1C(=O)N2C(C(=O)O)=C(SCCNC=N)C[C@H]12 [IMIPENEM ANHYDROUS]', 'Staphylococcus aureus', '30 mm'),
  ('Nc1nc(-c2ccc(-n3ccnc3)cc2)cc(-c2ccc(Cl)cc2Cl)n1', 'Staphylococcus aureus', '11 mm'),
  ('COc1cc(-c2cc(-c3ccc(-n4ccnc4)cc3)nc(N)n2)ccc1OO', 'Staphylococcus aureus', '13 mm'),
  ('Nc1nc(-c2ccc(Br)cc2)cc(-c2ccc(-n3ccnc3)cc2)n1', 'Staphylococcus aureus', '12 mm'),
  ('Nc1nc(-c2ccc(I)cc2)cc(-c2ccc(-n3ccnc3)cc2)n1', 'Staphylococcus aureus', '16 mm'),
  ('Nc1nc(-c2ccc(-n3ccnc3)cc2)cc(-c2ccc(Cl)c(Cl)c2Cl)n1', 'Staphylococcus aureus', '15 mm');

###

System: Pseudomonas aeruginosa
Test: Antibacterial activity against Pseudomonas aeruginosa assessed as growth inhibition after 24 hr by agar well diffusion method
Format: functional
Measured Endpoint: diameter of the inhibition zone (DIZ) (mm)

INSERT INTO measurements (molecule, measured_endpoint, observed_value) VALUES
  ('C[C@@H](O)[C@H]1C(=O)N2C(C(=O)O)=C(SCCNC=N)C[C@H]12 [IMIPENEM ANHYDROUS]', 'diameter of the inhibition zone (DIZ)', 31),
  ('COc1cccc(-c2cc(-c3ccc(-n4ccnc4)cc3)nc(N)n2)c1', 'diameter of the inhibition zone (DIZ)', 12),
  ('COc1cc(-c2cc(-c3ccc(-n4ccnc4)cc3)nc(N)n2)ccc1OO', 'diameter of the inhibition zone (DIZ)', 10),
  ('COc1ccc(-c2cc(-c3ccc(-n4ccnc4)cc3)nc(N)n2)cc1', 'diameter of the inhibition zone (DIZ)', 11);
